protocol: yeast display, Sf9 membrane polyspecificity reagent, FACS + sequencing; frameworks hold sequencing errors
assayMetric: polyreactivity (PSR sort gate)

The cases that follow already have their polyreactivity (PSR sort gate) on record.
QVQRVESGGGLVQAGGSLRLSCAASGSIFNSNAMGWYRLAHGKERELVAAINWRGGSTYYADSVKGRFTISRDNAKNTVYLQMNSLKPEDSAVYYCAAVGWFHDYYWGQGTQLTVSS: high polyreactivity
QVQLEESGGGLVQAGGSLRLSCAASGRTFSANTMGLYRKATGKERELVAAISKSGGSTYYADSVKGRLTISRDTAKYTVYLQMNSLNPEDTAVYYCAARTSGYWYSYGSWGQGTQVTVSS: high polyreactivity
QVQLVESGGGLVQAGGSLRLSCAASGRILYSYAMGWYRQAPGKERELVAAISSTGSTYYADSVKGRFTISRDNAKNTVYLQMNSLKPEDTAVYYCAATFYPYQVHHYYYWGQGTQVTVSS: low polyreactivity
QVQLVESGVGLVQARGSLRLSCASSGSIFLVYAMGWYRQAPGKESELVAAISRSGRTYADSVKGRFTISRDNAKNTVYLQMNSLKPVDTAVYYCAAVTKRRFEGDYWGQGTQVTVSS: high polyreactivity
QVQLVESGGGLVQAGGSLRLSCAASGSIYGLNAMGWYRQAPGKESELVAAITWSGGSSTYYADSVKGRFTISRDNAKNTVYLQMNSLKPVDTAVYYCAAGRVFIPYYFRFYYWGQGTQVSVSS: high polyreactivity
QVQLVESGAGLVQAGGSLRLSCAASGFTFFGDYAMGWYRQAPGKERELVAAIDWSGGTTYYADSVKGRFTISRDNAKNTVYLQMNSLKPEDTAVYYCARRYYYSYPPQEDDYWGQGTQVTVSS: high polyreactivity

Give the reported value of polyreactivity (PSR sort gate) for this record: QVQLVESGGGLVQAGGSLRLSCAASGRTFYVNTMGWYRPAPGKEREFVAAITWRDGSTYYADSVKGRFTISRDNAKNTVYPQMNSLKPEDTAVYYCAARNSHDGYYDEYYYWGQGTQVTVSS low polyreactivity

Input QVQLVESGGGLVQAGGSLRLSCAASGSIFYWYAMGWYRQAPGKERELVAAITWSGGSTYYADSVKGRFTISRDNAKNTVYLQMNSLKPEDTAVYYCNKVPYYGAYSSYDYWGQGTQVTVSS , output reported polyreactivity (PSR sort gate). high polyreactivity

* * *

protocol: yeast display, Sf9 membrane polyspecificity reagent, FACS + sequencing; frameworks hold sequencing errors
assayMetric: polyreactivity (PSR sort gate)

Here are 5 sequences together with their reported answers.
QVQLVESGGGLVQAGRSLRLSCAASGRIFISYTMGWYRPAPGKERELVAGIDSSGTSTYYADSVKGRFTISRDYAKNTVYLQMNSLIPEDTAVYYCNVVGNWKDTSTELDYWGQGTQVTVSS: low polyreactivity
QVQLVESGGGLVQAGGSLRLSCAASGSIFAIYAMGWYRQAPGKERELVAAISSSSGSTYYADSVKARFTISRDNAKNTVYLQMYSLKPEDTAVYYCAAESGRRIKYWRGYYYWGQGTQVTVSS: low polyreactivity
QVQLVESGGGLVQAGGSLRLSCAASGSIFGYYAMGWYRQAPGKERELVAAITRGARTYYADSVKGRFTISRDNAKNTVYLQMNSLKPEDTAFYYCNRVPYYEGGNGSWGQGTQVTVSS: high polyreactivity
QVQLVESGGGLVQAGGSLRLSCAASGRIFAGYAMGWYRKAPGKERELVASIRSSGSTYYADSVKGRFTISRDNAKNTVYLQMNSLKPEDTAVYYCAARSGYFRSRFDYWGQGTQVTVSS: high polyreactivity
QVQLVESGGGLVQAGGSLRLSCAASGFIYHGYTMGWYSQAPGKERDLVAAITTSGTSTYYADSVKGRFTISRDNAKNTVYLQMNSLKPEDTAVYYCYDYVPGGYSRPYYYRFDHWGQGTQVTVSS: high polyreactivity

For the sequence QVQLVESGGGLVQAGGSLRLSCAASGSTSYFNVKGWYRQAPGKERELVAAISWSGGSTYADSVKGRFTISRDNAKNTVYLQMNSLKREDTAVYYCNKDYGYVQLRFYGPGYYWGQGTQVTVSS , give its measured polyreactivity (PSR sort gate) value. low polyreactivity

Provide only the value of recorded polyreactivity (PSR sort gate) for QVQLVESGGGLVQAGGSLSLSCAASGRLFARNTMGWYRQAPGKEREFVAAIDRRGGSTYYADSVKGRFTISRDNAKNTVYLQMNSLKPEDTAVYYCNKDTRRSGRMDSWGQGTEVTVSS low polyreactivity

Tell me polyreactivity (PSR sort gate) reported for QVQLVESGGGLVQAGGSLRLSCAASGFTFHKYAMGWYRQAPGKERELVAAISWSGDRTYYADSVKGRFTISRDNAKNTVYLQMNSLKPEDTAVYYCAAATRYSFYIKYDYWGQGTQVTVSS high polyreactivity

Indicate the recorded polyreactivity (PSR sort gate) value for this sequence: QVQLVESGGGLVQAGGSLRLICAASGSIFRSYAMGWYRQAPGKERELVAPIDRSGGSTYYADSVKGRLTISRDYAKNTVYCQLNSLKPEDTAVYNSNKTPHFPRPGFNYWGLGTQVTVSS low polyreactivity

Specify measured polyreactivity (PSR sort gate) for QVQLVESGGGLVQAGGSLRLSCAASGRIFGRNAMGWYRQAPGKERELVAAISSSGGTYYADSVKGRFTISRDNAKNTVYLQMNSLKPEDTAVYYCTARVRTQQRWVDYWGQGTQVTVSS . high polyreactivity

Dear colleague, please send me the reported polyreactivity (PSR sort gate) for QVQLVDSGGGLVQAGGSLRLSCAASGFIFSAYTMGWYRQAPGKERELVAAISGSGVGTYYADSVKGRFTISRDNAKNTVYLQMNSLKPEDTAVYYCNAADYTAYYWEYYYWGQGTQVTVSS when you can. low polyreactivity

* * *

protocol: yeast display, Sf9 membrane polyspecificity reagent, FACS + sequencing; frameworks hold sequencing errors
assayMetric: polyreactivity (PSR sort gate)

QVQLVESGGGLVQAGGSLRLSCAASGRIFFWYVMGWYRQAPGKERELVAAISSGGRTYYADSVKGRFTISRDNAKNTVYLQMNSLKPEDTAVYYCNVEEYHVRADIGYSNYGYWGQGTQVTVSS: low polyreactivity
QVQLQESGGGLVQAGGSLRLGCAASGYISGFNEMGWYRQAPGKGRELDAAITYGGITNYADSVKGRFTISRDNAKNTVYLQMNSLKPEDTAMYYCAAGDFDQSNHAYWGQDTQVTVSS: high polyreactivity
QVQLVESGGGLVQAGGSLRLSCAASGRIFHYNAMGWYRQAPGKERELVAAISTGGSTNYADSVKGRFTISRDNAKNTFYLQMYSLKPEDTAVYYCAADHPVTYPTSKFDFWGQGTQVTVSS: low polyreactivity
QVQLVESGGGLVQAGGSLRLSCAASGSTILSNAMGWYRQAPGKERELVARITSGGSTHYADSVKGRFTISRDNAKNTVYLQMNSLKPEDTAVYYCNADYWFVEYDYWGQGTQVTVSS: low polyreactivity

Input QVQLVESGGGLVQAGGSLRLSCAASGFIFRYYAMGWYRQAPGKERELVAAISYSGGSTYYADSVKGRFTISRDTAKNTVYLQMNSLKPEDTAVYYCAAVLRTRDHPQPNYVYWGQGTQVTVSS , output reported polyreactivity (PSR sort gate). high polyreactivity

// Input: QVQLVESGGGLVQAGGSLRLSCAASASIFDIYGMGWYRKAPGKERELVASISGGAGSTNYADSVKGRFTISRDNAKNTVYLQMNSLKPEDTAVYYCAADSADPTEYDYWGQGTQVTVSS . Output its polyreactivity (PSR sort gate) only. low polyreactivity

// Input: QVQLVESGGGLVQAVGSLRLSCAASGSIFLLYDMGWYRPAPGKERELVAAITWSGGSTYYADSVKGRFTISRDNAKNTVYLQMNSLKPEDTAVYYCAADEPYPTAYEYWGQGTQVTVSS . Output its polyreactivity (PSR sort gate) only. low polyreactivity

Let me know recorded polyreactivity (PSR sort gate) for QVQLVESGGGLVQAGGSLRLSCAASGVILYFHAMGWYRQAPGKERELVAAITSDGGSTYYADSVKGRFTISRDDAKNTVYLQMNSLKPEDTAVYYCAADASTWYTEEYWGQGTQVTVSS , thanks. low polyreactivity

Provide measured polyreactivity (PSR sort gate) value, entry: QVQLVESGGGLVQAGGRLRLSCAASGFTFPLYTMGWYRQEPGKERELVAAITWSGGSTYADSLKGRFTISRDNAKNTVYLQMNSLNPEDTEVYYCNRRLQPRGAGHNSWGQGTQVTVSS high polyreactivity

For the sequence QVQLVESGGGIVQAGGSLRLSCAASGRTFSIYAMGWYRQAPGKERELVASITNSDGSTYYADSVKGRFTISRDNAKNTVYLQMNSLKPEDTAVYYCNDDSGISRVKYGYWGQATQVTVSS , give its measured polyreactivity (PSR sort gate) value. low polyreactivity

Entry QVQLVESGGGLVQAGGILRLSCAASGILVYNAMGWYIQAPGTERVLVAAISARGGRTYYADSVKGRFTISRDNAKNTVNLQMNSLKPEDTPVYYCATLETTGVNYWGQGTQVTVSS needs its polyreactivity (PSR sort gate) filled in; supply it. high polyreactivity
